Just for reference, the supplement of paper PMC9170038 is where these values come from.

Test system: MS2 coat protein
Assay: apparent KD of MS2 coat protein; designed switch direction (-1 OFF switch, 1 ON switch): -1; higher = weaker reporter binding
Details: input ligand: none
quantity: apparent KD of MS2 coat protein (nM)

UUAGUUGGAGGAUAUACGCCGUUUGACAUGAGGAUCACCCAUGUAGAGGCUUAUGUCAAUGUAGAAGGCCGUUUGG [Eternabot (L2) Solution 12] (Eterna round: R97, puzzle: Exclusion 5) = 18.7
GGUGCGUAUGUGAGGAUAUGCUGGUCCUUGGGUCGGCAGAAGGCACAUGAGGAUCACCCAUGUGGUGUCGUUCC [salish99_Bmod_ex4_101] (Eterna round: R96, puzzle: Brourd's mod of Exclusion 4) = 122
AUAAUGUGAGGAUAUCAGUCGUACAGCUGCGGCUGUACGACUGAGAAGGCACAUGAGGAUCACCCAUGUGGUCA [E4/5-A3] (Eterna round: R97, puzzle: Exclusion 4) = 672
GGGAAACAUGAGGAUCACCCAUGUCAGGAUAUCCGCUUUAAUUAAAUAAAUAAAUAAUGGAGAAGGGACAGCCC [-12.9, -10.5 kcal, 39% A] (Eterna round: R97, puzzle: Exclusion 1) = 33.7
GUGCCGCGAGGAUAUACAGACGGGUCCAAAACGUGUCUCGGACUUGAGGAUCACCCAAGUAGAAGGCGUAUCAG [salish99_ex2_r4_619] (Eterna round: R97, puzzle: Exclusion 2) = 21.4
GCCCGGGCAGGAUAUACGUGGCCCGGGUAACCGGGCCUCAGACAUGAGGAUCACCCAUGUAGAAGGGCCCGGGC [-44, -43.8 kcal, A 22%] (Eterna round: R97, puzzle: Exclusion 2) = 18.3
GGUCGUAGACAGGAUAUGCGGCAAAUAAAUAAAGCAGAAGGGUCUACUUGAGGAUCACCCAAGUGGGCGGUUAA [jl-ex6-4.18 ViennaUCT mod] (Eterna round: R97, puzzle: Exclusion 6) = 17.7
CAGUACUGAGGAUAUACAUGAGGAUCACCCAUGUGAUUUAGUGCACGCGUACGUGUACGUAGAAGGCAGUACUG [JL 3.27 m1] (Eterna round: R97, puzzle: Exclusion 3) = 20.8
UUUUUCUCAGGAUAUACAUGAGGAUCACCCAUGUAUAUUGAUGAUAAUACAUGGGAAUGUAGAAGGGAGCUCAU [Omei Ex3 Pseudoloop 16] (Eterna round: R97, puzzle: Exclusion 3) = 95.7
UGUGUACAUGAGGAUCACCCAUGUCAGGAUAUCUAGGCUCUCUCACUGACAACAGCCAAGAGAAGGGACGAGGU [EX1 B.7] (Eterna round: R97, puzzle: Exclusion 1) = 29.5
AGUACUAUCACGAAAGUGAUAGUACAAAUAGCAAGUGAAACAUGAGGAUCACCCAUGUCCUCAUUUGCUCGUCUUAA [Mat - Sensor v2 -ver2- JL mod - D66] (Eterna round: R96, puzzle: Sensor v2, turn-off variant 2) = 14.3
GGUUGUCGAGGAUAUACUAGGGACCGAUCGAUCGGAACUUCACAUGAGGAUCACCCAUGUAGAAGGCGACAAUC [Eternabot (L1) Solution 57] (Eterna round: R97, puzzle: Exclusion 2) = 174
UGCCCGGUUAGAGGAUAUCUACUGUGACUGGGUUUUCCAAAACAUGAGGAUCACCCAUGUGACGGAGAGAAGGCUAGCCUUAAA [Anedanage] (Eterna round: R96, puzzle: Exclusion NG 2) = 40.1
UGAGCUGAAGGAUAUGCGUAAUCACGGUGACGUGUAGAUCUACAUGAGGAUCACCCAUGUAGAAGGUCAGUUCU [Mat - Exclusion 2 - JL Mod - D33] (Eterna round: R97, puzzle: Exclusion 2) = 16.1
UAUUAGCAAGCAACUGGGUACAUGAGGAUCACCCAUGUGCUCGUCUUAUAAGGUACUGUGACGAAAGUCACUGUACC [mod--Eli14] (Eterna round: R97, puzzle: Sensor, turn-off variant 1) = 16.3
GACUUCUCUGAGGAUAUUGCAUCAUACGAUCUAUAAGAAGGCAGAACAUGAGGAUCACCCAUGUGGGUUUCUAG [Bingo-Bango-28] (Eterna round: R97, puzzle: Exclusion 6) = 38.3
GAAAACGUAGGAUAUUAAUACUUAGACAUGAGGAUCACCCAUGUUUGGUGGGUCGGAGAAUGAGAAGGGCGAUGAA [EX5 #13] (Eterna round: R97, puzzle: Exclusion 5) = 153
CUUUGCACGCUGCGGUCCUACAUGAGGAUCACCCAUGUGGUCUGGUGGCGUGGGUCGCCGGACUUGGCUCGUCUUGG [salish99_S_TOV1_R5_042] (Eterna round: R97, puzzle: Sensor, turn-off variant 1) = 15.7

----------
System: K4 kissing-loop RNA reporter;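 also: bound reporter read as fluorescence of individual clusters on recovered sequencing chips by microscopy, with normalized cluster intensities fitted with a binding model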
Experiment: apparent KD of K4 kissing-loop reporter; higher = weaker reporter binding
Details: Eterna round: R107; input ligand: theophylline 20 uM
quantity: apparent KD of K4 kissing-loop reporter

AAGGACGGGACUUCCUCGCCGGAUAGAGAUACCAGCCCAGCAAUGGGCCCUUGGCAGCUCACUGACCUCAGUGAUGUUGAGGUUC [Arange] = 193 nM
GAGGUACAGCUGGCCGUCGAAUUGUCCGAUACCAGACACUCUCUAGUCCCUUGGCAGCGGUGGUAAGUGAUGUUUACAGGCGCCG [theeternabot_exclusion_KL_Theo_A_3] = 122 nM
GCGUAUGAUGCUCAAAGAGUAUCUCCCGAUACCAGUAUGGAAACAUACCCUUGGCAGCGGGUAACUGCCCAGUGAUGUUGGACGC [Theophylline A K4 9] = 394 nM
AACUCUCAGACACUUGAGUGAUGUUCAGACCGAGGACCGGUACGGCCGCCACUCGGGUCUGAGAGAGGUUAUCAAAGAUAGCCAA [Omei KL Tryp A SS A v7] = 292 nM
AAACAUCACUGGGAGUGAUGUUCUCAGUGACGAGGACCGGUACGGCCGCCACUCGCGAGAGAUCUAGUCUAGUCUUGACUGCAUU [Excl Tryptophan A V13] = 359 nM
AGCUCAGAGUGACUCGAUAAGAGUCACAAACGAGGACCGGUACGGCCGCCACUCGAAAUAACGAGAGUGAUGUUCUUGCUGAGCA [FiskerMod 7 - Jieux - Same State Tryptophan A] = 631 nM
UAGACCUACUCAGGAUAUCCGCAGUGAUGUUGCGGUUGGCCUGAGCGACAUGAAAAUCUUACUAAAGGAGAAGGGAGAGGGUUAC [Ratiteus] = 69.7 nM
CCGUCGACAAGCGCCAUCGUCUACGUCAAUAAGGAUAUCAUCAAGGUGAGAAGGUAUGACAACCGGAGUGAUGUUCCAGGGCGAA [theeternabot_sameState_KL_FMN_A_5] = 304 nM
GUACGCUUCCGAGUGAUGUUCGGAAAUCGCUAGGAUAUCGCUUUUGCGAGAAGGAGCGCAAUGAGGAAACUCGUUGUUAGUGUAC [FMN A 27] = 171 nM
UAACAGGCCCUCACCGUCUUAUUUACAGACCGAGGACCGGUACGGCCGCCACUCGUGAAGUGAUGUUUCAAACAAGCGGUAGGAU = 480 nM
CGACACUCAGCGGCCGCCACUGAGCUAUAUUUUGCAGGUGCCCGAGUAAGUGAUGUUUACUUCGUCAGGACCGGGCUGGUUUCAA [theeternabot_sameState_KL_Trp_B_20] = 294 nM
AGAGUUAUGCGAGGAUAUGCGGUUAGUACUCAAAGAGUACUAACGCAGAGUGAUGUUCUGUGAAACACAGAAGGCGCAUAACUCA [Omei KL FMN B SS B v1] = 448 nM

----------
System: MS2 coat protein
Assay: apparent KD of MS2 coat protein; designed switch direction (-1 OFF switch, 1 ON switch): -1; higher = weaker reporter binding
Settings: input ligand: none
Decide by apparent KD of MS2 coat protein: equal to or exceeding 0.04 µM means 1, less means 0.

CAGUACUGAGGAUAUACAUGAGGAUCACCCAUGUGUGUGAGAAAAUUAAUAAAAGAAUGUAGAAGGCGGUGCUG [JR_Ex3_Sub041] (Eterna round: R97, puzzle: Exclusion 3) = 1
AGUGUGUGGCAGGAUAUUCUAAUCUUUAGGAGGGAAGAAGGGUCUACAUGAGGAUCACCCAUGUAAGCGGUUGA [Ex6 #40] (Eterna round: R97, puzzle: Exclusion 6) = 1
UAUAGUUCAGGAUAUGAUGAAUUAAACAUGAGGAUCACCCAUGUAGAUCCUGAAUUAACAUCAGAAGGGAAUAUUU [JL-ex5-4.49 Brourd mod] (Eterna round: R97, puzzle: Exclusion 5) = 0
GCCCGGCGUGUAGGAUAUGGUUCCGUUUCGGUUCCAGAAGGACAUGAGGAUACAUGAGGAUCACCCAUGUGGUCGUCACCGGGC [salish99_ExNG1_r04_402] (Eterna round: R96, puzzle: Exclusion NG 1) = 0
GGCGCACAUGAGGAUCACCCAUGUGAGGAUAUGUGGCGAUCGUCGAUAGACGAUAGCCACAGAAGGCACAUGCC [Mat - Exclusion 1 - Eli Mod - D20] (Eterna round: R97, puzzle: Exclusion 1) = 0
